# Test system: Trypanosoma brucei brucei
# experimental-protocol: WHO-TDR: Human African Trypanosomiasis (HAT)
# Format: functional, organism-based
# experimental-conditions: Squib-427
List of IC50 values.

Record excerpt, results attached:
{"molecule": "O=C(CC1CCCCN1S(=O)(=O)c1ccc(Cl)cc1)Nc1ccc2c(c1)OCO2 (stereo not given)", "IC50": "4.24 µg/mL"}
{"molecule": "Cc1cc(=O)[nH]c(-n2nc(C)cc2NC(=O)C2c3ccccc3Oc3ccccc32)n1", "IC50": "0.876 µg/mL"}
{"molecule": "O=c1c2nccnc2n(Cc2cccc(C(F)(F)F)c2)c(=O)n1Cc1ccc(F)cc1", "IC50": "4.08 µg/mL"}
{"molecule": "CC(C)CCN1C(=O)CCc2cc(NC(=O)c3cccc(Br)c3)ccc21", "IC50": "3.5 µg/mL"}
{"molecule": "CCCCCOc1cccc(C(=O)Nc2nnc(-c3ccco3)o2)c1", "IC50": "3.29 µg/mL"}
{"molecule": "CC(C)c1cc(C(=O)NCC2CCCO2)nn1-c1nc2ccccc2s1 (stereo not given)", "IC50": "> 11.1 µg/mL"}

Problem: Please look up its IC50: `CCCC(=O)N1CCN(c2ccc(Nc3ccncc3)nn2)CC1`
Result: > 9.79 µg/mL

Problem: Please look up its IC50: COc1ccc(S(=O)(=O)NCC(c2cccnc2)N2CCN(Cc3ccccc3)CC2)cc1C (stereo not given)
Result: 5.04 µg/mL

* * *

# Test system: Plasmodium falciparum K1
# experimental-protocol: WHO-TDR: Malaria
# Type: functional, organism-based, Homo sapiens
# experimental-conditions: Erythrocyte
observation-type: log10 of IC50 (log10 of the value in µg/mL)
Reminder: these figures are log10 of reported IC50, in µg/mL before transformation.

{"compound": "CC1CCN(C(C)CNC(=O)Nc2cccc(Cl)c2)CC1 (stereo unspecified)", "log10 of IC50": 0.00}

Problem: Please look up its log10 of IC50: CN(CC1CCCO1)S(=O)(=O)c1ccc(C(=O)Nc2nc3cc4c(cc3s2)OCCO4)cc1 (stereo unspecified)
Result: 0.63

Problem: Please look up its log10 of IC50: `COc1ccc(S(=O)(=O)CC(=O)Nc2sc(-c3ccccc3)cc2C(N)=O)cc1`
Result: 0.84

Problem: Please look up its log10 of IC50: `CN(Cc1ccco1)S(=O)(=O)c1ccc(C(=O)Nc2nnc(-c3cccs3)o2)cc1`
Result: 0.82

Problem: Please look up its log10 of IC50: `CCOc1ccc2ccccc2c1C(=O)Nc1cc(C)nn1-c1nc(C)cc(=O)[nH]1`
Result: -0.40

Problem: Please look up its log10 of IC50: `Cc1ccc(NC(=O)CSc2nncc(=O)[nH]2)cc1Cl`
Result: 0.56

* * *

# experimental-protocol: WHO-TDR: Cytotoxicity
# Format: toxicity, cell-based
# experimental-conditions: human, MRC5 cells
observation-type: IC50

Record excerpt, results attached:
{"compound": "FC(F)Sc1ccc(Nc2ncnc3[nH]ncc23)cc1", "IC50": "> 8.8 µg/mL"}
{"compound": "O=C(Nc1nc2c(Cl)ccc(Cl)c2s1)C1=COCCO1", "IC50": "> 9.93 µg/mL"}
{"compound": "Cc1ccc(S(=O)(=O)NCC(c2cccc3ccccc23)N2CCOCC2)cc1C (configuration not stated)", "IC50": "> 12.7 µg/mL"}
{"compound": "COc1ccc2nc(-c3ccc(OC)c(NC(=O)c4c(F)cccc4Cl)c3)cn2n1", "IC50": "> 12.8 µg/mL"}
{"compound": "COc1ccc(S(=O)(=O)CC(=O)Nc2sc(-c3ccccc3)cc2C(N)=O)cc1", "IC50": "> 12.9 µg/mL"}

Problem: Please look up its IC50: `FC(F)(F)c1ccc(Nc2ncnc3[nH]ncc23)cc1`
Result: > 8.38 µg/mL

Problem: Please look up its IC50: `O=C(Nc1ccc2c(c1)OCCO2)c1oc2ccccc2c1NC(=O)C1c2ccccc2Oc2ccccc21`
Result: > 15.6 µg/mL

* * *

# experimental-protocol: WHO-TDR: Cytotoxicity
# Format: toxicity, cell-based
# experimental-conditions: human, MRC5 cells
List of IC50 values.

Record excerpt, results attached:
{"molecule": "COc1cc(C)ccc1S(=O)(=O)NCCCn1nc(-c2ccc(F)cc2)ccc1=O", "IC50": "10 µg/mL"}
{"molecule": "CN(C)CCCN(C(=O)c1ccc(N(C)C)cc1)c1nc2ccc(F)cc2s1", "IC50": "4.1 µg/mL"}
{"molecule": "CN(C)CCCN(C(=O)/C=C/c1ccccc1Cl)c1nc2cc3c(cc2s1)OCO3", "IC50": "0.462 µg/mL"}
{"molecule": "O=C(Nc1nccs1)c1ccc2c(c1)CCCC2", "IC50": "> 7.75 µg/mL"}
{"molecule": "CC(C)CN1C(=O)C(C)(C)COc2cc(NS(=O)(=O)c3ccccc3Br)ccc21", "IC50": "> 14.4 µg/mL"}

Problem: Please look up its IC50: `CSc1ccc2nc(N(Cc3cccnc3)C(=O)c3ccc(C(C)(C)C)cc3)sc2c1`
Result: 7.16 µg/mL

Problem: Please look up its IC50: Cc1cc(NC(=O)C2CCCN(S(=O)(=O)c3ccccc3)C2)on1 (configuration not stated)
Result: > 10.5 µg/mL

Problem: Please look up its IC50: `CCc1ccc(NC(=O)c2oc3ccccc3c2NC(=O)Cc2cccs2)cc1`
Result: > 12.1 µg/mL

Problem: Please look up its IC50: `O=C(CSC1=Nc2cccnc2Nc2ccccc21)Nc1ccc(OC(F)(F)F)cc1`
Result: > 13.3 µg/mL

Problem: Please look up its IC50: `CCS(=O)(=O)c1cccc(C(=O)Nc2nc3c(s2)CSc2ccccc2-3)c1`
Result: 4 µg/mL

Problem: Please look up its IC50: `O=C(c1ccc(F)cc1F)N1CCN(c2ccc(-c3cccnc3)nn2)CC1`
Result: > 11.4 µg/mL

Problem: Please look up its IC50: `CCOc1ccc(C(=O)Nc2ccc(Nc3nc(C)cc(N(CC)CC)n3)cc2)cc1OCC`
Result: 3.94 µg/mL

* * *

# Test system: Leishmania infantum
# experimental-protocol: WHO-TDR: Leishmaniasis
# Type: functional, organism-based, Mus musculus
# experimental-conditions: Macrophage
List of IC50 values.

Record excerpt, results attached:
{"molecule": "CCn1/c(=N\\C(=O)c2ccc(C(C)=O)cc2)sc2cc(C)ccc21", "IC50": "> 10.2 µg/mL"}
{"molecule": "COc1ccc(S(=O)(=O)Nc2cc(C)nn2C2CCS(=O)(=O)C2)cc1C (centres undefined)", "IC50": "> 12 µg/mL"}

Problem: Under Leishmania infantum: IC50 value of CCC(Sc1ccc(NC(=O)c2cccc(F)c2)nn1)C(=O)OC (centres undefined) ?
Result: > 10.5 µg/mL

Problem: Under Leishmania infantum: IC50 value of CC(=O)c1sc(NC(=O)C2CCCCN2S(C)(=O)=O)nc1-c1ccccc1 (centres undefined) ?
Result: > 12.2 µg/mL

Problem: Under Leishmania infantum: IC50 value of `O=C(c1ccccc1F)N1CCN(c2ccc(-c3ccccn3)nn2)CC1` ?
Result: > 10.9 µg/mL

Problem: Under Leishmania infantum: IC50 value of `Cc1ccc(NC(=O)CSc2nncc(=O)[nH]2)cc1Cl` ?
Result: > 9.32 µg/mL

Problem: Under Leishmania infantum: IC50 value of `COc1cccc(NC(=O)NCCNc2ccc(Nc3cc(C)ccn3)nn2)c1` ?
Result: > 11.8 µg/mL

Problem: Under Leishmania infantum: IC50 value of `O=C(NCCNc1ccc(Nc2ccncc2)nn1)Nc1ccc(Cl)cc1` ?
Result: > 11.5 µg/mL

Problem: Under Leishmania infantum: IC50 value of CN(C)C(CNS(=O)(=O)c1ccc(Cl)s1)c1ccc(F)cc1 (centres undefined) ?
Result: > 10.9 µg/mL

Problem: Under Leishmania infantum: IC50 value of `O=C(CCC1CCCCC1)N1CCN(c2ccc(-c3cccnc3)nn2)CC1` ?
Result: > 11.4 µg/mL

Problem: Under Leishmania infantum: IC50 value of `CCCCc1ccc(NC(=O)CSc2cn(CC)c3ccccc23)cc1` ?
Result: > 11 µg/mL

* * *

List of IC50 values.
# experimental-protocol: WHO-TDR: Cytotoxicity
# Assay type: toxicity, cell-based
# experimental-conditions: human, MRC5 cells
Response body: numeric value in µg/mL, unit text excluded.

{"structure-string": "Cc1ccnc(Nc2ccc(NCCNC(=O)c3cccc(C(F)(F)F)c3)nn2)c1", "IC50 (µg/mL)": 9.41}

Problem: Please look up its IC50: `CN(C(=O)CN1CC(=O)Oc2ccccc21)c1ccc(O)cc1`
Result: 2.96

* * *

# Tested on: Onchocerca ochengi
# experimental-protocol: WHO-TDR: Onchocerciasis
# Format: functional
# Design: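 at 12.5 µM on microfilariae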
observation-type: % Inhibition (%)
Response body: numeric value in %, unit text excluded.

{"molecule": "Cc1cc(=O)[nH]c(-n2nc(C)cc2NC(=O)c2ccc(S(=O)(=O)N3CCCCC3)cc2)n1", "observation-type": "% Inhibition", "meas-value": 0}
{"molecule": "Cc1nnc(NC(=O)COc2cccc3ccc(N4CCCC(C)C4)nc23)s1 (stereo unspecified)", "observation-type": "% Inhibition", "meas-value": 50}
{"molecule": "O=C(NCCOc1ccc2nnc(-c3ccccc3)n2n1)c1ccccc1C(F)(F)F", "observation-type": "% Inhibition", "meas-value": 0}
{"molecule": "Cn1ccnc1N1CCN(CC(=O)Nc2ccc(OC(F)(F)F)cc2)CC1", "observation-type": "% Inhibition", "meas-value": 50}
{"molecule": "COc1ccc(S(=O)(=O)CC(=O)Nc2sc(-c3ccccc3)cc2C(N)=O)cc1", "observation-type": "% Inhibition", "meas-value": 100}

Below: the item to evaluate.
Problem: Please look up its % Inhibition: `O=C(COc1ccc(Cl)cc1Cl)Nc1onc2c1CCC2`
Result: 0
